# assay system: RIPK1 (recombinant GST-RIPK1 kinase domain, residues 1-327) (Homo sapiens (Human))
# procedure details: RIPK1-ADP-Glo Enzymatic Assay
# Assay type: biochemical
# study conditions: ADP-Glo; 25 nM GST-RIPK1, 300 μM ATP; assay lower limit ~25 nM; read-out: RIPK1 V0 Ec50
Counter-ions that a name gives are not always drawn.
Entries and their measured EC50 follow.
I only need the number, in nM, no unit after it.

COc1ncccc1C(=O)N1CCC2(CC1)O[C@@H]1CC[C@@H](c3cc(F)cc(F)c3)N1C2=O | 154
O=C(c1cnnc2ccccc12)N1CCC2(CC1)O[C@@H]1CC[C@@H](c3cc(F)cc(F)c3)N1C2=O | 263

IN: For the compound O=C(Nc1ccccc1)N1CCC2(CC1)O[C@@H]1CC[C@@H](c3cc(F)cc(F)c3)N1C2=O , what EC50 is on record?
OUT: 537

IN: May I ask what EC50 has been recorded for COc1cnc(N2CCC3(CC2)O[C@@H]2CC[C@@H](c4ccccc4)N2C3=O)n2ncnc12 ?
OUT: 45.4

IN: Item O=C1N2[C@@H](CC[C@H]2c2cc(F)cc(F)c2)OC12CCN(c1cccc3nccn13)CC2 [Example 13.5, TFA salt] has what recorded EC50?
OUT: 98.4

IN: I would be grateful if you could share the reported EC50 for Cc1cccc(C(=O)N2CCC3(CC2)O[C@@H]2CC[C@@H](c4cc(F)cc(F)c4)N2C3=O)n1 .
OUT: 60

IN: Entry N#Cc1ccc(N2CC3(C2)O[C@@H]2CC[C@@H](c4ccccc4)N2C3=O)n2ncnc12 [Example 13.23, TFA salt] has what EC50?
OUT: 54.3

IN: Returns the measured EC50 for the input compound. Input: COCOc1cc(-c2ccc(N3CCC4(CC3)O[C@@H]3CC[C@@H](c5ccccc5)N3C4=O)nc2)on1
OUT: 28.8

---

# assay system: RIPK1 (recombinant GST-RIPK1 kinase domain, residues 1-327) (Homo sapiens (Human))
# procedure details: RIPK1-ADP-Glo Enzymatic Assay
# Format: biochemical
# study conditions: ADP-Glo; 25 nM GST-RIPK1, 300 μM ATP; assay lower limit ~25 nM; read-out: RIPK1 V0 Ec50
Reported pEC50 by item:
Scale: negative log10 of molar concentration, which is what pEC50 denotes.

Cc1nc(Cl)c(C)c(N2CCC3(CC2)O[C@@H]2CC[C@@H](c4ccccc4)N2C3=O)n1 | 7.57
N#Cc1cc(N2CCC3(CC2)O[C@@H]2CC[C@@H](c4ccccc4)N2C3=O)ncn1 | 7.49
CN(C)C(=O)c1ccc(N2CCC3(CC2)O[C@@H]2CC[C@@H](c4ccccc4)N2C3=O)nc1 | 6.59
O=C(c1cnc2ccccc2n1)N1CCC2(CC1)O[C@@H]1CC[C@@H](c3cc(F)cc(F)c3)N1C2=O | 7.31
C[C@@]12CC[C@@H](c3ccccc3)N1C(=O)C1(CCN(c3ccnc4c(F)cnn34)CC1)O2 | 7.29

IN: Which pEC50 value is on record for O=C1N2[C@@H](CC[C@H]2c2ccccc2F)OC12CN(c1ncco1)C2 ?
OUT: 6.03

---

# assay system: RIPK1 (recombinant GST-RIPK1 kinase domain, residues 1-327) (Homo sapiens (Human), UniProt Q13546)
# Sequence (Q13546 1-327): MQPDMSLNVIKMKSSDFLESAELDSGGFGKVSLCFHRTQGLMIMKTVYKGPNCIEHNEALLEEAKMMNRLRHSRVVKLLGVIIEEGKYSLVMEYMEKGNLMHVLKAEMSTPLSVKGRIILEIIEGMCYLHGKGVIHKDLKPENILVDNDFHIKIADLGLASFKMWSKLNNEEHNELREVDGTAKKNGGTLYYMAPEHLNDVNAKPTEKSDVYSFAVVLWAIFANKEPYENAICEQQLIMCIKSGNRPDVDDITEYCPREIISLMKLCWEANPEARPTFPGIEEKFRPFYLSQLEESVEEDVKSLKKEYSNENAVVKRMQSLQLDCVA
# procedure details: RIPK1-ADP-Glo Enzymatic Assay
# Format: biochemical
# study conditions: ADP-Glo; 25 nM GST-RIPK1, 300 μM ATP; assay lower limit ~25 nM; read-out: RIPK1 V0 Ec50
property: EC50 (nM)
Field: numeric (nM). Do not append units.

N#Cc1ccc(C(=O)N2CCC3(CC2)O[C@@H]2CC[C@@H](c4cc(F)cc(F)c4)N2C3=O)cc1 [Example 5.21] | 342
O=C(c1cc(F)cc(F)c1)N1CCC2(CC1)O[C@@H]1CC[C@@H](c3cc(F)cc(F)c3)N1C2=O [Example 6.48] | 34.2
Cc1cc(N2CCC3(CC2)O[C@@H]2CC[C@@H](c4ccccc4)N2C3=O)cs1 [Example 11.10] | 253
Cc1nc(N2CCC3(CC2)O[C@@H]2CC[C@@H](c4ccccc4)N2C3=O)sc1C [Example 11.32] | 319

IN: // lookup EC50 for Cc1ncc([C@@H]2CC[C@H]3OC4(CCN(c5ccc(C#N)c(C)n5)CC4)C(=O)N32)cc1F [Example 4.46]
OUT: 46.9
